target: recombinant sEH (Homo sapiens, UniProt P34913); assay: biochemical screening assay for inhibition of soluble epoxide hydrolase (fluorometric, Phome substrate)
Sequence (P34913 whole entry): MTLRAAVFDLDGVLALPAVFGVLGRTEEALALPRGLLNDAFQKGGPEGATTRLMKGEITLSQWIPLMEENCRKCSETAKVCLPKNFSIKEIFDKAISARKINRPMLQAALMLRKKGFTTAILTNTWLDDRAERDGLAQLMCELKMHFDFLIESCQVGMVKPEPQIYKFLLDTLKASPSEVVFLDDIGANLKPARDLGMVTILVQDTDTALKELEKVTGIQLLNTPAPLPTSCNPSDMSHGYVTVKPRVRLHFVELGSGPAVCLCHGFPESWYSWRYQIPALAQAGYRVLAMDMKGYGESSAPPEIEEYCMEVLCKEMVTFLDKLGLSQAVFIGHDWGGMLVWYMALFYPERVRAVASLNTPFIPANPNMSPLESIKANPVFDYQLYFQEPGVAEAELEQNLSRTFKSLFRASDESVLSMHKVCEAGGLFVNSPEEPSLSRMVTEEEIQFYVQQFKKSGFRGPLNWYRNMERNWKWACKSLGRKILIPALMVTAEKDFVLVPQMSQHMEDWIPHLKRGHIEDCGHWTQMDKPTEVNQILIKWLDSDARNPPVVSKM
Structures can show the parent of a compound that is named as a salt.
For each of the molecules below, state its IC50.
Answers are plain numbers, in nM.

Solved cases below.
Molecule | Unit annotation | Experimental result
Cc1ccc(S[C@H]2CO[C@H]3[C@@H]2OC[C@@H]3NC(=O)NC2CCCCC2)nc1 | nM | 2
Cc1ncccc1O[C@H]1CO[C@H]2[C@@H]1OC[C@@H]2NC(=O)NC1CCCN(C(=O)OC(C)(C)C)C1 (stereo partly drawn) | nM | 16
Cc1ncccc1O[C@H]1CO[C@H]2[C@@H]1OC[C@@H]2NC(=O)NC1CCCCC1C(C)(C)C (stereo partly drawn) | nM | 99
CCC(OC)(c1cccc(O[C@H]2CO[C@H]3[C@@H]2OC[C@@H]3NC(=O)NC2CCCCC2)c1)c1nccs1 (stereo partly drawn) | nM | 2
Cc1ncccc1O[C@H]1CO[C@H]2[C@@H]1OC[C@@H]2NC(=O)NCC1CN(C)CCO1 (stereo partly drawn) | nM | 1900

Provide IC50 for all items below, preserving their order.
1. Cc1ncccc1O[C@H]1CO[C@H]2[C@@H]1OC[C@@H]2NC(=O)NC1CCCCC1(F)F (stereo partly drawn)
2. CC1(C)CC(=O)c2cc(O[C@H]3CO[C@H]4[C@@H]3OC[C@@H]4NC(=O)NC3CCCCC3)ccc2O1
3. Cc1ncccc1O[C@H]1CO[C@H]2[C@@H]1OC[C@@H]2NC(=O)NCC1CCC(=O)N1C (stereo partly drawn)

[2, 4, 545]

Give measured IC50 for every item shown.
1. COCC(C)NC(=O)N[C@H]1CO[C@H]2[C@@H]1OC[C@@H]2Oc1cccnc1C (stereo partly drawn)
2. Cc1ncccc1O[C@H]1CO[C@H]2[C@@H]1OC[C@@H]2NC(=O)NC1CCN(C(=O)C(C)C)CC1
3. C[C@H](NC(=O)N[C@H]1CO[C@H]2[C@@H]1OC[C@@H]2Oc1ccc(F)cc1)c1ccccc1
4. Cc1ncccc1O[C@H]1CO[C@H]2[C@@H]1OC[C@@H]2NC(=O)Nc1cc(C(C)(C)C)[nH]n1
5. O=C(NC1CCCCC1)N[C@H]1CO[C@H]2[C@@H]1OC[C@@H]2/C=C\c1ccccn1 [Example 334, trifluoroacetate]
6. Cc1ncccc1O[C@H]1CO[C@H]2[C@@H]1OC[C@@H]2NC(=O)NC1CCC(F)(F)CC1
7. CC[C@@H](NC(=O)N[C@H]1CO[C@H]2[C@@H]1OC[C@@H]2Oc1ccc(F)cc1)c1ccccc1
8. O=C(NC1CCCCC1)N[C@H]1CO[C@H]2[C@@H]1OC[C@@H]2Oc1ccccc1-c1nnn[nH]1

846
37
47
238
159
5
51
454

Hi, could you look up IC50 for each item in my list?
1. O=C(NC1CCN(C(=O)C(F)(F)F)CC1)N[C@H]1CO[C@H]2[C@@H]1OC[C@@H]2Oc1ccc(F)cc1
2. COC(=O)c1ccc2cc(O[C@H]3CO[C@H]4[C@@H]3OC[C@@H]4NC(=O)NC3CCCCC3)ccc2c1
3. Cc1ncccc1OC1COC2C(NC(=O)NC3C4(C)CCC(C4)C3(C)C)COC12 (stereo not drawn)

1. 11
2. 3
3. 56

// each molecule listed below needs its IC50
1. Cc1ncccc1O[C@H]1CO[C@H]2[C@@H]1OC[C@@H]2NC(=O)NCc1c(C)n[nH]c1C
2. O=C(Nc1ccccc1-c1ccccc1)N[C@H]1CO[C@H]2[C@@H]1OC[C@@H]2C#Cc1ccsc1

[54, 59]

Please go through the list and note IC50 for each molecule.
1. O=C(NC1CCCCC1)N[C@H]1CO[C@H]2[C@@H]1OC[C@@H]2C#Cc1ccc2c(c1)OCO2
2. Cc1ncccc1O[C@H]1CO[C@H]2[C@@H]1OC[C@@H]2NC(=O)N[C@H]1C[C@@H]2CC[C@H]1C2
3. O=C(NC1CCCCC1)N[C@H]1CO[C@H]2[C@@H]1OC[C@@H]2Oc1cccc(Cl)c1Cl

1: 75; 2: 1; 3: 3

Please state IC50 for every molecule in the list that follows.
1. O=C(NC1CCCCC1)N[C@H]1CO[C@H]2[C@@H]1OC[C@@H]2Oc1ccc(F)cc1
2. Cc1ncccc1O[C@H]1CO[C@H]2[C@@H]1OC[C@@H]2NC(=O)N[C@@H]1CCCC[C@H]1F
3. Cc1ncccc1O[C@H]1CO[C@H]2[C@@H]1OC[C@@H]2NC(=O)NCc1cnn(C)c1
4. O=C(NC1CCCCC1)N[C@H]1CO[C@H]2[C@@H]1OC[C@@H]2Oc1cccc(N2CCOCC2)c1
5. O=C(NC1CCCCC1)N[C@H]1CO[C@H]2[C@@H]1OC[C@@H]2Oc1cccc(N2CCCCC2)c1

1. 4
2. 14
3. 1730
4. 2
5. 2

Data origin: patent US9540391B2
